Provide the reported inhibition at 30 µM of each item.
Target: UniProt:P04585
Test: biochemical
Settings: read-out: HIV-1 Protease % Inhib, dose 30.000 uM
Numbers only, in %.

compound	targetOrSystem	scaleUnit	inhibition at 30 µM
O=c1oc2c(c(O)c1[C@H](c1cccc(NS(=O)(=O)c3cccc4cccnc34)c1)C1CC1)CCCCCC2	UniProt:P04585	%	96.1
O=C(NCc1ccc(C(c2c(O)c3c(oc2=O)CCCCCC3)C2CC2)s1)OCc1ccccc1 (stereo not shown)	UniProt:P04585	%	98.7
O=c1oc2c(c(O)c1C(c1cccc(NS(=O)(=O)c3ccc(Cl)c(Cl)c3Cl)c1)C1CC1)CCCCCC2 (stereo not shown)	UniProt:P04585	%	98.3

Now look at this entry.
Task: Report inhibition at 30 µM for O=c1oc2c(c(O)c1[C@H](c1cccc(NS(=O)(=O)c3ccc(S(=O)(=O)c4ccccc4)s3)c1)C1CC1)CCCCCC2
Output: 103

---

What inhibition at 1 µM was measured for each of the following?
Target: HIV-1 protease (Human immunodeficiency virus type 1 group M subtype B, UniProt P04585)
Test: biochemical
Conditions: read-out: HIV-1 Protease % Inhib, dose 1.000 uM

Quick request: inhibition at 1 µM for each listed item, please.
1. CCC(c1cccc(OC)c1)c1c(O)c2ccccc2oc1=O (stereo not shown)
2. CCC(c1cccc(C#N)c1)c1c(O)c2ccccc2oc1=O (stereo not shown)
3. CCC(c1ccc(OC(C)=O)cc1)c1c(O)c2ccccc2oc1=O (stereo not shown)
4. O=c1oc2ccccc2c(O)c1C(CCc1ccccc1)Cc1ccccc1 (stereo not shown)

Output:
1: < 10%; 2: < 10%; 3: < 10%; 4: 37%

Go through the list and state inhibition at 1 µM for each entry.
1. CCC(c1cccc(NC(=O)CC(C)(C)NC(=O)OC(C)(C)C)c1)c1c(O)c2ccccc2oc1=O (stereo not shown)
2. CCC(c1cccc(Br)c1)c1c(O)c2ccccc2oc1=O (stereo not shown)
3. CCC(c1cccc(N)c1)c1c(O)c2ccccc2oc1=O (stereo not shown)
4. C=CCOc1cccc(C(CC)c2c(O)c3ccccc3oc2=O)c1 (stereo not shown)

Output:
1: < 10%; 2: < 10%; 3: < 10%; 4: < 10%

Record inhibition at 1 µM per entry; entries follow.
1. CCC(c1ccccc1)c1c(O)c2c(oc1=O)CCC2 (stereo not shown)
2. CCC(c1ccccc1)c1c(O)c2ccc(OCCN3CCOCC3)cc2oc1=O (stereo not shown)
3. CC(C)CC(c1ccccc1)c1c(O)c2ccccc2oc1=O (stereo not shown)
4. CCC(Cc1ccccc1)c1c(O)c2ccccc2oc1=O (stereo not shown)
5. CCC(c1cccc(NC(=O)CCSc2nc3ccccc3s2)c1)c1c(O)c2ccccc2oc1=O (stereo not shown)
6. CCC(c1ccccc1)c1c(O)c2ccc(C(F)(F)F)cc2oc1=O (stereo not shown)
7. CCC(c1ccccc1)c1c(O)c2ccc(OCCOCCOC)cc2oc1=O (stereo not shown)
8. CC(c1cccc(C(=O)NCc2ccccc2)c1)c1c(O)c2ccccc2oc1=O (stereo not shown)

Output:
1. 36.5%
2. 14.2%
3. 32.2%
4. 25.9%
5. < 10%
6. 10.5%
7. 29.1%
8. < 10%

Provide each entry's inhibition at 1 µM from the list below.
1. CCC(c1ccccc1)c1c(O)c2ccc(O)cc2oc1=O (stereo not shown)
2. COc1ccc2c(c1)CCCC2c1c(O)c2ccccc2oc1=O (stereo not shown)
3. CCCCC(=O)Nc1cccc(C(CC)c2c(O)c3ccccc3oc2=O)c1 (stereo not shown)

Output:
1: 23.2%; 2: < 10%; 3: < 10%

---

Assign inhibition at 1.1 µM to each entry below.
Target: HIV-1 protease (Human immunodeficiency virus type 1 group M subtype B, UniProt P04585)
Experiment: biochemical
Details: read-out: HIV-1 Protease % Inhib, dose 1.100 uM
Numbers only, in %.

molecule	inhibition at 1.1 µM, %
O=c1oc2c(c(O)c1C(c1cccc(NS(=O)(=O)c3ccc(-c4ccccn4)s3)c1)C1CC1)CCCCCC2 (centres unmarked) [Example 310]	94.9
O=C(CCn1ccc2ccccc21)Nc1cccc(C(c2c(O)c3c(oc2=O)CCCCCC3)C2CC2)c1 (centres unmarked) [Example 197]	76.6
Cc1sc(C(c2c(O)c3c(oc2=O)CCCCCC3)C2CC2)cc1CO (centres unmarked) [Example 394]	109

# batch size: 5; output inhibition at 1.1 µM per entry
1. O=c1oc2c(c(O)c1C(c1cccc(NS(=O)(=O)c3cccc(NS(=O)(=O)c4ccccc4)c3)c1)C1CC1)CCCCCC2 (centres unmarked) [Example 350]
2. O=c1oc2c(c(O)c1C(c1cccc(NS(=O)(=O)c3cccc(C(F)(F)F)c3)c1)C1CC1)CCCCCC2 (centres unmarked) [Example 280]
3. CCS(=O)(=O)Nc1cccc(C(c2c(O)c3c(oc2=O)CCCCCC3)C2CC2)c1 (centres unmarked) [Example 318]
4. CC(O)CC1CCCCCc2c1oc(=O)c(C(c1ccccc1)C1CC1)c2O (centres unmarked) [Example 162]
5. CC(C)CCC1CCCCCc2c1oc(=O)c(C(c1ccccc1)C1CC1)c2O (centres unmarked) [Example 132]

Output:
82.2
101
84.2
92.2
76.2

---

Molecular target: HIV-1 protease (Human immunodeficiency virus type 1 group M subtype B, UniProt P04585)
Test: biochemical
Settings: read-out: HIV-1 Protease % Inhib, dose 100.000 uM
For each entry below, report its inhibition at 100 µM value.
Give bare numbers, in %.

compound	scaleUnit	numericReadout
O=c1oc2ccccc2c(O)c1C(c1ccccc1)c1ccccc1 [Example 7, 4-Hydroxy-3-diphenylmethylcoumarin]	%	96.3
CCC(c1cccc(NC(=O)CC(C)(C)N)c1)c1c(O)c2ccccc2oc1=O (centres unmarked)	%	43.3
O=c1oc2c(c(O)c1C(c1ccccc1)C1CC1)CCCCC2 (centres unmarked)	%	105
CCC(C)C(NC(=O)c1cccc(C(C)c2c(O)c3ccccc3oc2=O)c1)C(=O)NCc1ccccn1 (centres unmarked)	%	109
CCC(c1ccccc1)c1c(O)c2ccc(O)cc2oc1=O (centres unmarked)	%	109
CCC(c1ccccc1)c1c(O)c2cc(OC)ccc2oc1=O (centres unmarked)	%	52
O=c1oc2ccccc2c(O)c1C(CCc1ccccc1)Cc1ccccc1 (centres unmarked)	%	97
O=c1oc2ccccc2c(O)c1CC(c1ccccc1)c1ccccc1 [Example 4, 4-Hydroxy-3-(2,2-diphenylethyl)-coumarin]	%	45.3

Respectfully, I request inhibition at 100 µM for each entry included below.
1. O=c1oc2ccccc2c(O)c1C(C1CC1)C1CC1
2. O=c1oc2c(c(O)c1C(C1CC1)C1CC1)CCCCCC2
3. CC(c1cccc(C(=O)NCC(=O)NCc2nc3ccccc3[nH]2)c1)c1c(O)c2ccccc2oc1=O (centres unmarked)
4. CCC(c1cccc(O)c1)c1c(O)c2ccccc2oc1=O (centres unmarked)
5. O=c1oc2ccccc2c(O)c1C(Cc1ccccc1)Cc1ccccc1
6. CCC(c1cccc(NC(=O)c2ccccn2)c1)c1c(O)c2ccccc2oc1=O (centres unmarked)

Output:
[106, 105, 77.4, 80.9, 98.6, 90.9]

State the recorded inhibition at 100 µM for every item in the following list.
1. O=C(Nc1cccc(C(c2c(O)c3c(oc2=O)CCCCCC3)C2CC2)c1)OCc1ccccc1 (centres unmarked)
2. COc1ccc2c(O)c(C(c3ccccc3)C3CC3)c(=O)oc2c1 (centres unmarked)
3. O=c1oc2ccccc2c(O)c1C1CCc2ccccc21 (centres unmarked) [Example 35, 4-hydroxy-3-[1-indanyl]-coumarin]

Output:
1. 101
2. 93.4
3. 92.6

Here are 2 compounds. What values of inhibition at 100 µM were reported for them?
1. CCC(c1cccc(C(=O)NCc2nc3ccccc3[nH]2)c1)c1c(O)c2ccccc2oc1=O (centres unmarked)
2. CCC(c1ccccc1OC)c1c(O)c2ccccc2oc1=O (centres unmarked)

Output:
1. 93.7
2. 72.2

Working through the 7 compounds below one at a time, give inhibition at 100 µM for each.
1. CCC(c1cccc(NC(=O)COc2cccc3ccccc23)c1)c1c(O)c2ccccc2oc1=O (centres unmarked)
2. O=c1oc2c(c(O)c1C(C1CC1)C1CC1)CCCCCC2Cc1ccccc1 (centres unmarked)
3. CC(Cc1c(O)c2ccccc2oc1=O)c1ccccc1 (centres unmarked) [Example 5, 4-Hydroxy-3-(2-phenylpropyl)coumarin]
4. CC(c1cccc(C(=O)NC2c3ccccc3CC2O)c1)c1c(O)c2ccccc2oc1=O (centres unmarked)
5. CCC(c1cccc(NC(=O)CCc2ccccc2)c1)c1c(O)c2ccccc2oc1=O (centres unmarked)
6. O=c1oc2c(c(O)c1C(c1ccccc1)C1CC1)CCCCCCC2 (centres unmarked)
7. CCC(c1ccc(OC)cc1)c1c(O)c2ccccc2oc1=O (centres unmarked)

Output:
1: 80.6; 2: 78.9; 3: 95; 4: 98.4; 5: 115; 6: 100; 7: 96.4

Hi team, please reply with inhibition at 100 µM for each item in this list.
1. CCC(c1cccc(NC(=O)CC[C@H](NC(=O)OC(C)(C)C)C(=O)OC(C)(C)C)c1)c1c(O)c2ccccc2oc1=O (some centres unmarked)
2. CCC(c1ccccc1)c1c(O)c2cc(N)ccc2oc1=O (centres unmarked)

Output:
[39.6, 48.7]

Quick request: inhibition at 100 µM for each listed item, please.
1. CCC(c1ccccc1)c1c(O)c2ccc(Cl)cc2oc1=O (centres unmarked)
2. CCCC(Cc1ccccc1)c1c(O)c2ccccc2oc1=O (centres unmarked)
3. O=c1oc2ccccc2c(O)c1C1CCCc2ccccc21 (centres unmarked)
4. CCC(c1cccc(NC(=O)CCc2ccccc2)c1)c1c(O)c2ccc(OC)cc2oc1=O (centres unmarked)
5. CCC(c1cccc(NC(=O)CCC2CCCCC2)c1)c1c(O)c2ccccc2oc1=O (centres unmarked)
6. CCC(c1cccc(NC(=O)CCc2ccc(O)cc2)c1)c1c(O)c2ccccc2oc1=O (centres unmarked)
7. CCC(c1cccc(NC(=O)C(NC(=O)OC(C)(C)C)C(C)C)c1)c1c(O)c2ccccc2oc1=O (centres unmarked)

Output:
1. 113
2. 96.5
3. 91.1
4. 99.3
5. 49.5
6. 78.3
7. 112
